Here, each record is paired with measured t1/2 data.
TARGET ENTITY: T1, human GFRα3 expressed with a C-terminal mFc tag (human)
T1 construct: also called hGFRα3-mFc
T1 chain: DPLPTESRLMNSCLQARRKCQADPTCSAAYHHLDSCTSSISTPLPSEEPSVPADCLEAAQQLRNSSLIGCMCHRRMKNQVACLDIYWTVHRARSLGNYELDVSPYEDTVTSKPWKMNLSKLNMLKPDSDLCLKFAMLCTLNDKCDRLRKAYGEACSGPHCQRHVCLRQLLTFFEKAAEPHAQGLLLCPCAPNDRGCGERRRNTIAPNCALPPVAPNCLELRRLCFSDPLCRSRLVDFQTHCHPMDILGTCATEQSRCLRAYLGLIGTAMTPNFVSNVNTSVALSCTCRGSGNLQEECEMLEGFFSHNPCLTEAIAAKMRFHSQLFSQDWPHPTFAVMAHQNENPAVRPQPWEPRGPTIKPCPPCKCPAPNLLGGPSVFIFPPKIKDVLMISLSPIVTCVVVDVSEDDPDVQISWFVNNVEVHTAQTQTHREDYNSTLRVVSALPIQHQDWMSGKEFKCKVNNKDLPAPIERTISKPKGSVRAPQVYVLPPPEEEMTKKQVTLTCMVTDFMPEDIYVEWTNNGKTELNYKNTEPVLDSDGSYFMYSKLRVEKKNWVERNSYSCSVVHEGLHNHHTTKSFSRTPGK
PROCEDURE TEXT: SPR, Ab captured, 37C

| BINDER | t1/2 / h |
| --- | --- |
| H4H2294S (antibody, human IgG4, V domains shown, human IgG4 Fc (H4H)) VH: EVQLVESGGGLVQPGGSLRLSCAASGFTFSSYAMSWVRQAPGKGLEWVSVISGSGGSTYYADAVKGRFTISRDNSKHTLYLQMNSLRAEDTAVYYCTKPSSYSSSNFYYGMDVWGQGSTVTVSS VL: DIQLTQSPSSVSASVGDRVTITCRASQGISSWLAWYQQKPGKAPKLLIYAASSLQSGVPSRFSGSGSGTDFTLTISSLQPEDFATYYCQQTNSFPFPFGPGTKVDIK | 5.57 |
| H4H2345S (antibody, human IgG4, V domains shown, human IgG4 Fc (H4H)) VH: EVQLVESGGGLVRPGRSLRLSCAASGFTFDNYAMHWVRQVPGKGLEWVSGITWNSVSLGYADSVKGRFTISRDNAQNSLYLQMNSLRTVDTALYYCAKDRWGGSYYFDFWGQGTLVTVSS VL: DIVMTQSPSSLSASVGDRVTITCRASQGISNYLAWYQQKPGKVPKLLIYSASTLQSGVPSRFSGSGSGTDFTLTISNLQPEDFATFFCQKYNSAPTFGGGTKVEIK | 2.58 |
| H4H2295S (antibody, human IgG4, V domains shown, human IgG4 Fc (H4H)) VH: EVQLVESGGGLVQAGGSLRLSCVASGFTFSSYAMSWVRQAPGKGLEWVSAISGSGGSTYSADSVKGRFTISRDNSKNTLYLQMNSLRAEDTAVYYCTKPSSYSSSNFYYGMDVWGQGTTVTVSS VL: DIQMTQSPSSVSASVGDRVTITCRASQGISSWLAWYQQKPGKAPKLLIYTASSLQSGVPSRFSGSGSRTDFTLTISSLQPEDFATYYCQQTNSLPLTFGPGTKVEIK | 3.95 |
| H4H2350P (antibody, human IgG4, V domains shown, human IgG4 Fc (H4H)) VH: QVQLQESGPGLVKPSETLSLTCTVSGGSISTYYWSWFRQPPGKGLEWIGYIYYSGSTNHNPSLKSRVTISVDTSKNQFSLKLRSVTAADTAVYYCARVGPVGWGSWGNFDYWGQGTLVTVSS VL: DIQLTQSPSFLSASVGDRVTITCWASQGISSYLAWSQQKPGKAPKLLIYAASTLQSGVPSRFSGSGSGTEFTLTISSLQPEDFATYYCQQLNSYPWTFGQGTKVEIK | 1.53 |

Hello, the source for this data is patent US20140056903A1, in case you need it.
